# assay.details: Half life in phosphate buffer assessed as mushroom tyrosinase-mediated prodrug conversion at 10^-5 M at pH 7.4 by HPLC analysis
# Type: ADME
# condition.set: agaricus bisporus, pH 7.4, 10 µM
measure.name: t1/2 (min)
Write it as a number; the unit min goes unstated.

{"smiles.structure": "CC(=O)N[C@@H](Cc1ccc(O)cc1)C(=O)N(C)/N=N/c1ccc(C(N)=O)cc1", "measure.unit": "min", "t1/2": 17.4}
{"smiles.structure": "CCOC(=O)c1ccc(/N=N/N(C)C(=O)[C@H](Cc2ccc(O)cc2)NC(C)=O)cc1", "measure.unit": "min", "t1/2": 18}
{"smiles.structure": "COC(=O)c1ccc(/N=N/N(C)C(=O)[C@H](Cc2ccc(O)cc2)NC(C)=O)cc1", "measure.unit": "min", "t1/2": 18.3}
{"smiles.structure": "CC(=O)N[C@@H](Cc1ccc(O)cc1)C(=O)N(C)/N=N/c1ccc(Br)cc1", "measure.unit": "min", "t1/2": 8.9}
{"smiles.structure": "CC(=O)N[C@@H](Cc1ccc(O)cc1)C(=O)N(C)/N=N/c1ccc(C#N)cc1", "measure.unit": "min", "t1/2": 15.6}

[in] For the molecule "CC(=O)N[C@@H](Cc1ccc(O)cc1)C(=O)N(C)/N=N/c1ccc(C(C)=O)cc1" , give its reported t1/2.
[out] 19.8
